- SYSTEM TESTED: Sodium- and chloride-dependent glycine transporter 1 (Homo sapiens, UniProt P48067)
- Sequence (P48067 whole entry): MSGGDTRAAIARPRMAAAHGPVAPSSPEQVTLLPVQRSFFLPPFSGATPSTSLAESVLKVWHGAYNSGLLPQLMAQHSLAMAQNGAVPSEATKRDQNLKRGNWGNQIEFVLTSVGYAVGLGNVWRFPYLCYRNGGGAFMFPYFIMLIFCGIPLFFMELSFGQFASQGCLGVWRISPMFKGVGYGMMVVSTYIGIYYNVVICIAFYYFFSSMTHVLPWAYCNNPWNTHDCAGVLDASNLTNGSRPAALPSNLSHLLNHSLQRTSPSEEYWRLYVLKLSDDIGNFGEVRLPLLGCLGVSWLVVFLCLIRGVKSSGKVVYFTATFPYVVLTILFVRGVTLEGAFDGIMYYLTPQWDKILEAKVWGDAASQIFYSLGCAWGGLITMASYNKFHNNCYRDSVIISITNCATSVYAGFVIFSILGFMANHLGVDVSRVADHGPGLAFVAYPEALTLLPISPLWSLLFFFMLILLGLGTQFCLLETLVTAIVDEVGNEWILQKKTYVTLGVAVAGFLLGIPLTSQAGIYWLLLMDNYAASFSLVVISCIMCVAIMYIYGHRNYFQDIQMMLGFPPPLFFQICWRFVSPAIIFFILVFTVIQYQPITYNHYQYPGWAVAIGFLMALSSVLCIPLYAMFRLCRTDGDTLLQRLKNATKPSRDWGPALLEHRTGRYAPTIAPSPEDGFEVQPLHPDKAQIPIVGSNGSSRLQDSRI
- ASSAY: Inhibition of recombinant human GlyT1b expressed in Xenopus laevis oocytes assessed as reduction in channel current by two-electrode voltage clamp electrophysiology
ASSAY READOUT: IC50

These recorded examples may help you get a feel for the data.
Ask: Return IC50 (reported value) for this compound: CCCCCCCC/C=C\CCCCCCCC(=O)N[C@@H](CO)C(=O)O
Result: > 3 µM

Ask: Identify measured IC50 associated with CCCCCCCC/C=C\CCCCCCCC(=O)N[C@@H](CCCC)C(=O)O
Result: > 10 µM

Ask: Give a short answer stating reported IC50 for CCCCCCCC/C=C\CCCCCCCC(=O)N[C@H](CCC(=O)O)C(=O)O .
Result: > 10 µM

Ask: Supply IC50 value. Item: CCCCCCCC/C=C\CCCCCCCC(=O)N[C@H](CCc1ccccc1)C(=O)O
Result: > 10 µM

Ask: Return value of IC50 for input CCCCCCCC/C=C\CCCCCCCC(=O)N[C@H](CO)C(=O)O , no commentary.
Result: > 3 µM

***
Ask: Given CCCCCCCC/C=C\CCCCCCCC(=O)N[C@H](CCCNC(=N)N)C(=O)O , respond with its IC50.
Result: > 3 µM

Ask: Consider the compound CCCCCCCC/C=C\CCCCCCCC(=O)N[C@@H](CCN)C(=O)O . State its measured IC50.
Result: > 3 µM

Ask: Find the measured IC50 of CCCCCCCC/C=C\CCCCCCCC(=O)N[C@@H](CN)C(=O)O and report it.
Result: > 3 µM

Ask: # return recorded IC50 for input CCCCCCCC/C=C\CCCCCCCC(=O)N[C@@H](Cc1cnc[nH]1)C(=O)O
Result: > 3 µM

Ask: Tell us which IC50 value is on record for CCCCCCCC/C=C\CCCCCCCC(=O)N[C@@H](CCCN)C(=O)O
Result: > 3 µM

Data origin: ChEMBL document CHEMBL4480400
